Data provenance is patent US20220313774A1.

Experiment: Trial 000015 Part 2: pharmacokinetics after multiple intranasal administrations
Format: in vivo, human
Details: female, human, plasma, inhaled or intranasal, 200 ug, multiple i.n. doses every 3 hours, 200 μg, Dose No. 2; read-out: tmax Mean (SD)
*1 amine or outer side, *2 acyl side, *3 side chain or, on linkers, in order; H or OH if unused. Where a SMILES comes first, the peptide text is derived from it. Bridges are numbered along the chain shown (N, C = ends). [ ]: non-standard residue; d: D form. N(4-F-Bzl)Gly = O=C(O)CNCc1ccc(F)cc1; X1 = O=C(CCC[*:2])[*:1]
property label: Tmax (min)
One number for each entry, in min.

Task: Assign Tmax to the following record: CC[C@H](C)[C@@H]1NC(=O)[C@H](Cc2ccc(O)cc2)NC(=O)CCCSC[C@@H](C(=O)N(CC(=O)N[C@@H](CC(C)C)C(=O)NCC(N)=O)Cc2ccc(F)cc2)NC(=O)[C@H](CC(N)=O)NC(=O)[C@H](CCC(N)=O)NC1=O [merotocin] (YIQNC[N(4-F-Bzl)Gly]LG-NH2; linker N-5 via X1)
Result: 16.8
